Tested on: IMCSzyme™ (recombinant glucuronidase)
Experiment: IMCSzyme hydrolysis of opiate glucuronides
Assay type: biochemical
Conditions: 65° C., 0 min
reported.property: Mean % Hydrolysis (%)
Numbers only, in %.

Please review the entries below; each comes with its answer.
compound	target.entity	observed
CN1CC[C@]23c4c5ccc(O[C@@H]6O[C@H](C(=O)O)[C@@H](O)[C@H](O)[C@H]6O)c4O[C@H]2C(=O)CC[C@H]3[C@H]1C5 [Hydromorphone Glucuronide]	IMCSzyme™ (recombinant glucuronidase)	58.5
CN1CC[C@]23c4c5ccc(O[C@@H]6O[C@H](C(=O)O)[C@@H](O)[C@H](O)[C@H]6O)c4O[C@H]2[C@@H](O)C=C[C@H]3[C@H]1C5 [Morphine-3-Glucuronide]	IMCSzyme™ (recombinant glucuronidase)	99.5
CN1CC[C@]23c4c5ccc(O[C@@H]6O[C@H](C(=O)O)[C@@H](O)[C@H](O)[C@H]6O)c4O[C@H]2C(=O)CC[C@@]3(O)[C@H]1C5 [Oxymorphone Glucuronide]	IMCSzyme™ (recombinant glucuronidase)	43.6
COc1ccc2c3c1O[C@H]1[C@@H](O[C@@H]4O[C@H](C(=O)O)[C@@H](O)[C@H](O)[C@H]4O)C=C[C@H]4[C@@H](C2)N(C)CC[C@@]341 [Codeine Glucuronide]	IMCSzyme™ (recombinant glucuronidase)	15.7

Below: the item to evaluate.
# Mean % Hydrolysis of CN1CC[C@]23c4c5ccc(O)c4O[C@H]2[C@@H](O[C@@H]2O[C@H](C(=O)O)[C@@H](O)[C@H](O)[C@H]2O)C=C[C@H]3[C@H]1C5 [Morphine-6-Glucuronide] = 40.4

---

System: IMCSzyme™ (recombinant glucuronidase)
Experiment: IMCSzyme hydrolysis of opiate glucuronides
Assay type: biochemical
Details: 55° C., 30 min
reported.property: Mean % Hydrolysis (%)
Numbers only, in %.

Please review the entries below; each comes with its answer.
compound	target.entity	reported.property	units.text	observed
CN1CC[C@]23c4c5ccc(O[C@@H]6O[C@H](C(=O)O)[C@@H](O)[C@H](O)[C@H]6O)c4O[C@H]2[C@@H](O)C=C[C@H]3[C@H]1C5 [Morphine-3-Glucuronide]	IMCSzyme™ (recombinant glucuronidase)	Mean % Hydrolysis	%	99.1
COc1ccc2c3c1O[C@H]1[C@@H](O[C@@H]4O[C@H](C(=O)O)[C@@H](O)[C@H](O)[C@H]4O)C=C[C@H]4[C@@H](C2)N(C)CC[C@@]341 [Codeine Glucuronide]	IMCSzyme™ (recombinant glucuronidase)	Mean % Hydrolysis	%	65.6
CN1CC[C@]23c4c5ccc(O[C@@H]6O[C@H](C(=O)O)[C@@H](O)[C@H](O)[C@H]6O)c4O[C@H]2C(=O)CC[C@H]3[C@H]1C5 [Hydromorphone Glucuronide]	IMCSzyme™ (recombinant glucuronidase)	Mean % Hydrolysis	%	91.1

Return reported Mean % Hydrolysis values for all items listed beneath this line.
1. CN1CC[C@]23c4c5ccc(O[C@@H]6O[C@H](C(=O)O)[C@@H](O)[C@H](O)[C@H]6O)c4O[C@H]2C(=O)CC[C@@]3(O)[C@H]1C5 [Oxymorphone Glucuronide]
2. CN1CC[C@]23c4c5ccc(O)c4O[C@H]2[C@@H](O[C@@H]2O[C@H](C(=O)O)[C@@H](O)[C@H](O)[C@H]2O)C=C[C@H]3[C@H]1C5 [Morphine-6-Glucuronide]

1. 90.5
2. 83.6

---

So I've got a bunch of compounds here, and I need their Mean % Hydrolysis values.
System: IMCSzyme™ (recombinant glucuronidase)
Test: IMCSzyme hydrolysis of opiate glucuronides
Assay type: biochemical
Conditions: 65° C., 30 min
One number for each entry, in %.

Please review the entries below; each comes with its answer.
compound	Mean % Hydrolysis (%)
CN1CC[C@]23c4c5ccc(O[C@@H]6O[C@H](C(=O)O)[C@@H](O)[C@H](O)[C@H]6O)c4O[C@H]2C(=O)CC[C@H]3[C@H]1C5 [Hydromorphone Glucuronide]	89.4
COc1ccc2c3c1O[C@H]1[C@@H](O[C@@H]4O[C@H](C(=O)O)[C@@H](O)[C@H](O)[C@H]4O)C=C[C@H]4[C@@H](C2)N(C)CC[C@@]341 [Codeine Glucuronide]	64.1
CN1CC[C@]23c4c5ccc(O[C@@H]6O[C@H](C(=O)O)[C@@H](O)[C@H](O)[C@H]6O)c4O[C@H]2[C@@H](O)C=C[C@H]3[C@H]1C5 [Morphine-3-Glucuronide]	95.8
CN1CC[C@]23c4c5ccc(O)c4O[C@H]2[C@@H](O[C@@H]2O[C@H](C(=O)O)[C@@H](O)[C@H](O)[C@H]2O)C=C[C@H]3[C@H]1C5 [Morphine-6-Glucuronide]	88.3

Below: the item to evaluate.
# Mean % Hydrolysis of CN1CC[C@]23c4c5ccc(O[C@@H]6O[C@H](C(=O)O)[C@@H](O)[C@H](O)[C@H]6O)c4O[C@H]2C(=O)CC[C@@]3(O)[C@H]1C5 [Oxymorphone Glucuronide] = 89.7

Origin of values: patent US20160076075A1
